Assay Explanation: protease stability score; higher = more stable; yeast display proteolysis, trypsin and chymotrypsin;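 further: log10 excess protease needed over predicted unfolded state with 0 meaning unfolded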
Is protease stability score at least 0.1? Then rule met. If not, rule not met.

{"Query Sequence": "DEDKVKKIAEELWKAISNGDEERMKKLMRDDVRAQVGDTEVHGREHVVHQLATFAKQVDHLTMETYDIRGNHVTFRFQARVNGKRVQIDMVIHVSNGRIKELRIDPKQVKELES", "Discrete Label": "rule met"}
{"Query Sequence": "DETAISVAKTMFEAMESNDPDEVRRQADPNATFVIGDKNYHGMETYAKEVKKRNDKIDVQLQDMDITDQGEDADIKQVAVFTHDGRPKKVVIHWDISVRNGRIKFVHADQRG", "Discrete Label": "rule not met"}
{"Query Sequence": "DEDKLDHLARKAAEIMVQGDPDKFRDMFDPNAKLRYGDKELRGREEADKAIEEMQKRVDSSDVEDITAHNGRANAVLVLNHNGRHKRFVLVVDVRNGRATKASMHDD", "Discrete Label": "rule not met"}
{"Query Sequence": "DSDAARELVKALNTGNEEELKHMVDPNARARVGDKRLHGRDELFRFWHKLKRHVDHRRVNKVEIHGEKAHVDVQLNVDGRNIRVNIVMEAHNGRVKEFTIEFRDRDARKEFRNQVD", "Discrete Label": "rule met"}
{"Query Sequence": "DERDVHRIAEQLIKAMQTGDEKKLTDLADKDAEAQIGDKEIHGNHDFSRAMREFRERVDHIELKDIRVHNGHVSVDIVADINGVQLRFVITMEVKNGKVRQLSVEVRDPEQEKTALS", "Discrete Label": "rule met"}
{"Query Sequence": "DEEEKAREQQEEFQKALEKNDKEKIKNYFDPNVRVHVGDKTLHGREDVAERLIQLAQHVDHIQVEIKKLDVRNGRIDVDVVVVFERNGQRSTQRFKITMKINNGRAYVQHMKQS", "Discrete Label": "rule met"}

---

Assay Explanation: protease stability score; higher = more stable; yeast display proteolysis, trypsin and chymotrypsin;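 further: log10 excess protease needed over predicted unfolded state with 0 meaning unfolded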
Classification field: enter MET for protease stability score values not below 0.4, NOT MET for values below it.

{"Query Sequence": "EESLEHIVRTMLEQIRRGDPRDLKEMFPENARIEYGDRSIHGREEYAKTMEHKRRQARYHFQVKSIRNNGNKVELVMEVEDNHNGNPSTRRVKLTIVFHNGRIQNVEQTNKP", "Discrete Label": "MET"}
{"Query Sequence": "DDENQQHFAEKMATAVIKNDPDEIVRLADPNVQVQVGEKEVHGREEVHELMEELKDQADHVHLVSVHVSNGQVNIVVDVVVNGKRLRVTITVKFNNGKVRYIRVDPEFQRKMDK", "Discrete Label": "NOT MET"}
{"Query Sequence": "DEKKEEQWVRDVKKHAETGNWHDFWRQADPNVRFQVGDTTLRGREEAVKVAEDMRRQVDHQRVEHVDAHNGKVTVDAVLDINGRQQKVEYVVEMHNGRIKRINFSYS", "Discrete Label": "NOT MET"}
{"Query Sequence": "DEEVKTVAEEFWKAIQTGDPDQVKTQVDENARMRVGDKSIHGSDNISTDVERERKEIKVKYNIQDIRASNGTVRVRMDVRRNHNGKPREHEQTMTQTIDNGKIQDVNISTDG", "Discrete Label": "NOT MET"}
{"Query Sequence": "DEEQLKTFQQAMRDEEHGNEQRVRDLFDPNARVVYGDKVVHGREEMVKKLKRRKDEMRVELRVREYKVEEDHMSATLEVINDHNGKPDTDKQTVEARMNGDQFEQVNIQKDS", "Discrete Label": "NOT MET"}
{"Query Sequence": "DENVVKTAKNWFKAVQTGDTQEIHKNADPNARFQIGDKEYEGMEEYDKEQKERFEHMRVDYKDVTIRADGEHLHVKVKAKVNVNGQPHDVTFTIEARVDNGKFKEIVVKFDPDQQDRVEK", "Discrete Label": "NOT MET"}
{"Query Sequence": "DTDKTARQLVRDLEKALQTGDPDKLAKLFDKDARINVGEKDYQGRERMQRNWRRDNTRIDHVSVDLKDMKIQGNKISVDMTIKFKVDGHHNSRVVVLLFDNDNGTVRAVENQQK", "Discrete Label": "NOT MET"}
{"Query Sequence": "DDDAQRRVKTYFNLLLTGNPENLKNQVDEDVRVEIGDKEIRGSDQVAHHARQLHTEMRIHARIDDMKVQGDHIRVEVRLYFERNGQPRTKNLRASVRWHNGKMKEFVVKNDD", "Discrete Label": "MET"}
{"Query Sequence": "DEDHDVRVAENLLEAIRTGNEDEVTRLADENAELEIGDHRYHGREQVSSAAKRINDRADDISINEVHYTGDKLSVQMQMNVNGKNIVVDVVVVAHNGRVKTVRFQYTSEEDFKKFES", "Discrete Label": "MET"}
{"Query Sequence": "DEEEHAKEFVKRLDKVNKKNDEESFEDLADENATFRYGDKTYRGREDMRKLVQDLRKRADHADVKLTRLELHNGQVRAEIDMRFRHDGRTHKDVFDAQLKVTNGTVKLTNLNQS", "Discrete Label": "NOT MET"}
